test: qHTS profiling for inhibitors of Plasmodium falciparum (DD2) proliferation (AID 743323); conditions: lower = more inhibition; at 28.7 µM (top of the series) unless noted
valueType: activity, percent of control (%)

{"compound": "CC(C)c1ccc2c(c1)c(SC(C)(C)C)c(CC(C)(C)C(=O)O)n2Cc1ccc(Cl)cc1", "unitTag": "%", "reported": 27.3}
{"compound": "CCOC(=O)C(C)Oc1cccc2c(=O)n(CC(=O)Nc3ccc4c(c3)OCCO4)ccc12 (centres undefined)", "unitTag": "%", "reported": 97.4}
{"compound": "Cc1cc(C2CCCCC2)n(O)c(=O)c1", "unitTag": "%", "reported": 0.27}

====

system: CP247; test: qHTS profiling for inhibitors of Plasmodium falciparum proliferation (AID 504749); further: nearly all actives have a fitted effect of over 60% in size; conditions: P. falciparum in erythrocytes, SYBR Green DNA, 72 h; series mostly up to 28.7 µM
Records with an inconclusive call do not appear. Activity calls are given as the source filed them. The call rests on the fitted dose curve; in most records, active means well fitted inhibition curve with a large enough effect; inconclusive means small, poorly fitted or top-dose-only effect; inactive means flat fitted curve, though single readings scatter.
Possible outcomes: active, inactive

{"compound": "Nc1ccc(S(N)(=O)=O)cc1", "className": "inactive"}
{"compound": "CCCCN(CCCC)CCC(O)c1cc2c(Cl)cc(Cl)cc2c2cc(C(F)(F)F)ccc12 (configuration not stated)", "className": "active"}
{"compound": "CCCOc1ccc2nc(NC(=O)OC)[nH]c2c1", "className": "inactive"}
{"compound": "CN(C)CCc1c[nH]c2ccc(Cn3cncn3)cc12", "className": "inactive"}
{"compound": "N[C@@H](Cc1cc(I)c(Oc2cc(I)c(O)c(I)c2)c(I)c1)C(=O)O", "className": "inactive"}
{"compound": "CC(C)(S)[C@@H](N)C(=O)O", "className": "inactive"}
{"compound": "O=C(O)c1cn(-c2ccc(F)cc2)c2cc(N3CCNCC3)c(F)cc2c1=O", "className": "inactive"}

====

experiment: P-glycoprotein substrates identified in KB-8-5-11 adenocarcinoma cell line, qHTS therapeutic library screen (AID 1346987); conditions: KB-8-5-11 (P-gp overexpressing) viability, CellTiter-Glo, 72 h; series mostly up to 44.5 µM; further: nearly all actives have a fitted effect of over 65% in size
Inconclusive results are not listed. Active and inactive are the calls of the source. Calls follow the shape of the dose curve; as a rule, active = well fitted inhibition curve with a large enough effect; inconclusive = small, poorly fitted or top-dose-only effect; inactive = flat fitted curve, though single readings scatter.
Possible outcomes: active, inactive

{"compound": "O=c1oc2cc(O)ccc2s1", "className": "inactive"}
{"compound": "CCN(CC)CCOc1ccc(Cc2ccccc2)cc1", "className": "inactive"}
{"compound": "N[C@@H](Cc1cc(I)c(Oc2cc(I)c(O)c(I)c2)c(I)c1)C(=O)O", "className": "inactive"}
{"compound": "O=C(NOCC1CC1)c1ccc(F)c(F)c1Nc1ccc(I)cc1Cl", "className": "active"}
{"compound": "Cc1c(C(=O)NN2CCCCC2)nn(-c2ccc(Cl)cc2Cl)c1-c1ccc(Cl)cc1", "className": "active"}
{"compound": "Oc1ccc(-c2nc(-c3ccc(F)cc3)c(-c3ccncc3)[nH]2)cc1", "className": "inactive"}
{"compound": "COC(=O)C1=C(C)NC(C)=C(C(=O)OC(C)C)C1c1cccc2nonc12 (configuration not stated)", "className": "inactive"}
{"compound": "Nc1ncn([C@H]2C[C@H](O)[C@@H](CO)O2)c(=O)n1", "className": "inactive"}
{"compound": "Cc1ccc(Nc2nccc(N(C)c3ccc4c(C)n(C)nc4c3)n2)cc1S(N)(=O)=O", "className": "inactive"}
{"compound": "Nc1ccc(S(N)(=O)=O)cc1", "className": "inactive"}
{"compound": "CCCc1cc(=O)[nH]c(=S)[nH]1", "className": "inactive"}
{"compound": "CC(S)C(=O)NCC(=O)O (configuration not stated)", "className": "inactive"}

====

tested on: CP203; experiment: qHTS profiling for inhibitors of Plasmodium falciparum proliferation (AID 504749); further: nearly all actives have a fitted effect of over 60% in size; conditions: P. falciparum in erythrocytes, SYBR Green DNA, 72 h; series mostly up to 28.7 µM
Results filed as inconclusive are left out. Calls of active or inactive are those of the source. Calls follow the shape of the dose curve; as a rule, active = well fitted inhibition curve with a large enough effect; inconclusive = small, poorly fitted or top-dose-only effect; inactive = flat fitted curve, though single readings scatter. Peptide text beside a SMILES is read from it.
Possible outcomes: TRUE (active), FALSE (inactive)

{"compound": "CCN(CCO)CCCC(C)Nc1ccnc2cc(Cl)ccc12 (configuration not stated)", "testSystem": "CP203", "className": "FALSE"}
{"compound": "CS(=O)(=O)OCCCCOS(C)(=O)=O", "testSystem": "CP203", "className": "FALSE"}
{"compound": "COCCCOc1ccnc(CS(=O)c2nc3ccccc3[nH]2)c1C (configuration not stated)", "testSystem": "CP203", "className": "FALSE"}
{"compound": "C=C(c1ccc(C(=O)O)cc1)c1cc2c(cc1C)C(C)(C)CCC2(C)C", "testSystem": "CP203", "className": "FALSE"}
{"compound": "CCCCC(CC)COC(=O)C(C#N)=C(c1ccccc1)c1ccccc1 (configuration not stated)", "testSystem": "CP203", "className": "FALSE"}
{"compound": "O=C(O)CCNC(=O)c1ccc(N=Nc2ccc(O)c(C(=O)O)c2)cc1", "testSystem": "CP203", "className": "FALSE"}
{"compound": "N[C@@H](Cc1cc(I)c(Oc2cc(I)c(O)c(I)c2)c(I)c1)C(=O)O", "testSystem": "CP203", "className": "FALSE"}
{"compound": "Cn1c(NCCN(CCO)CCCc2ccc([N+](=O)[O-])cc2)cc(=O)n(C)c1=O", "testSystem": "CP203", "className": "FALSE"}
{"compound": "COC(=O)[C@H](Cc1ccccc1)NC(=O)[C@@H](N)CC(=O)O (H-Asp-Phe-OMe)", "testSystem": "CP203", "className": "FALSE"}
{"compound": "CCC1=C(C)CN(C(=O)NCCc2ccc(S(=O)(=O)NC(=O)NC3CCC(C)CC3)cc2)C1=O (configuration not stated)", "testSystem": "CP203", "className": "FALSE"}
{"compound": "Cc1c(OCC(F)(F)F)ccnc1CS(=O)c1nc2ccccc2[nH]1 (configuration not stated)", "testSystem": "CP203", "className": "FALSE"}
{"compound": "CC(C)(S)[C@@H](N)C(=O)O", "testSystem": "CP203", "className": "FALSE"}
{"compound": "CCOc1cc(CC(=O)N[C@@H](CC(C)C)c2ccccc2N2CCCCC2)ccc1C(=O)O", "testSystem": "CP203", "className": "FALSE"}
{"compound": "CC(C)c1ccc2oc3nc(N)c(C(=O)O)cc3c(=O)c2c1", "testSystem": "CP203", "className": "FALSE"}
{"compound": "CCCOc1ccc2nc(NC(=O)OC)[nH]c2c1", "testSystem": "CP203", "className": "FALSE"}
{"compound": "Clc1ccc(C(Cn2ccnc2)OCc2ccsc2Cl)c(Cl)c1 (configuration not stated)", "testSystem": "CP203", "className": "TRUE"}
{"compound": "CCOC(=O)c1c(C)n(C)c2ccc(O)cc12", "testSystem": "CP203", "className": "FALSE"}
{"compound": "CN(C)C(=O)COC(=O)Cc1ccc(OC(=O)c2ccc(N=C(N)N)cc2)cc1", "testSystem": "CP203", "className": "FALSE"}
{"compound": "C[C@H](Cn1cnc2c(N)ncnc21)OCP(=O)(O)O", "testSystem": "CP203", "className": "FALSE"}
{"compound": "Cc1cccc(C)c1OCC(=O)N[C@@H](Cc1ccccc1)[C@@H](O)C[C@H](Cc1ccccc1)NC(=O)[C@H](C(C)C)N1CCCNC1=O", "testSystem": "CP203", "className": "TRUE"}
{"compound": "O=C(NC(Cc1cc(=O)[nH]c2ccccc12)C(=O)O)c1ccc(Cl)cc1 (configuration not stated)", "testSystem": "CP203", "className": "FALSE"}
{"compound": "C[C@]12CCC(=O)C=C1CC[C@@H]1[C@H]2[C@@H](O)C[C@@]2(C)[C@H]1CC[C@]2(O)C(=O)CO", "testSystem": "CP203", "className": "FALSE"}

====

assay: Quantitative High-Throughput drug screen in 47 multiple myeloma cell lines against the NCATS MIPE library collection: KMS12BM_JCRB cell viability assay (AID 1918971); settings: KMS12BM myeloma viability, CellTiter-Glo ATP, 48 h; series mostly up to 45.8 µM; further: nearly all actives have a fitted effect of over 35% in size
Inconclusive results are not listed. Calls of active or inactive are those of the source. Calls come from the whole dose curve; as a rule, active = well fitted cell-killing curve with a large enough effect; inconclusive = small, poorly fitted or top-dose-only effect, or effect the other way; inactive = no such curve, though single readings can be large or run the other way.
Outcome codes: True (active), False (inactive)

{"compound": "O=C(c1ccccc1)c1ccc2n1CCC2C(=O)O (stereo not drawn)", "className": "False"}
{"compound": "CNC[C@H](O)c1ccc(O)c(O)c1", "className": "True"}
{"compound": "C[C@H](Cc1ccc(O)c(O)c1)[C@@H](C)Cc1ccc(O)c(O)c1", "className": "True"}
{"compound": "COc1c(O)cc2c(c1O)[C@@H]1O[C@H](CO)[C@@H](O)[C@H](O)[C@H]1OC2=O", "className": "True"}
{"compound": "CCCOc1ccc2nc(NC(=O)OC)[nH]c2c1", "className": "True"}
{"compound": "C[C@H](Cn1cnc2c(N)ncnc21)OCP(=O)(O)O", "className": "False"}
{"compound": "CCCCc1ccc2nc(NC(=O)OC)[nH]c2c1", "className": "True"}
{"compound": "Nc1ccc(S(N)(=O)=O)cc1", "className": "False"}
{"compound": "Cc1cccc(C#Cc2ccccc2)n1", "className": "True"}
{"compound": "CC(C)c1nc(CN(C)C(=O)N[C@H](C(=O)N[C@@H](Cc2ccccc2)C[C@H](O)[C@H](Cc2ccccc2)NC(=O)OCc2cncs2)C(C)C)cs1", "className": "True"}
{"compound": "O=C(O)c1cccc(-c2noc(-c3ccccc3F)n2)c1", "className": "True"}
{"compound": "O=C(NOCC1CC1)c1ccc(F)c(F)c1Nc1ccc(I)cc1Cl", "className": "True"}
{"compound": "Nc1nc(N)c(N=O)c(OCC2CCCCC2)n1", "className": "True"}
{"compound": "N=C(N)c1ccc2cc(OC(=O)c3ccc(N=C(N)N)cc3)ccc2c1", "className": "True"}
{"compound": "Cc1cc(Cl)ccc1OCCCC(=O)NO", "className": "True"}
{"compound": "c1ccc2[nH]c(-c3cscn3)nc2c1", "className": "False"}
{"compound": "O=C(O)c1cn(-c2ccc(F)cc2)c2cc(N3CCNCC3)c(F)cc2c1=O", "className": "True"}
{"compound": "CC1=C(C(=O)O)N2C(=O)[C@@H](NC(=O)[C@H](N)C3=CCC=CC3)[C@H]2SC1", "className": "False"}
{"compound": "Clc1ccc(C(Cn2ccnc2)OCc2c(Cl)cccc2Cl)c(Cl)c1 (stereo not drawn)", "className": "True"}
{"compound": "CC1Cc2ccccc2N1NC(=O)c1ccc(Cl)c(S(N)(=O)=O)c1 (stereo not drawn)", "className": "False"}
{"compound": "O=c1c(O)c(-c2ccc(O)cc2O)oc2cc(O)cc(O)c12", "className": "True"}
{"compound": "NC(=NCc1ccccc1)NC(=O)c1nc(Cl)c(N)nc1N", "className": "False"}
{"compound": "CN(C)c1ccc(O)c2c1C[C@H]1C[C@H]3[C@H](N(C)C)C(=O)C(C(N)=O)=C(O)[C@@]3(O)C(=O)C1=C2O", "className": "True"}

All figures here come from PubChem BioAssay (NCATS).
